// endpoint pIC50 / system c-KIT (Homo sapiens)
pIC50: −log10 of the molar value.
test readout: pIC50

* O=C(Nc1ccc(Oc2ncnc3[nH]ncc23)cc1)Nc1cccc(C(F)(F)F)c1 [4a-6] | 6.50
* O=C(Nc1ccc(Oc2ncnc3[nH]ncc23)cc1)Nc1ccc(Cl)c(C(F)(F)F)c1 [4a-2] | 6.29
* CC(C)(C)c1cc(NC(=O)Nc2ccc(Oc3ncnc4[nH]ncc34)cc2)on1 [4a-25] | 6.04

* * *

biological target: VEGFR2 (Homo sapiens); assay: Kinase inhibition activity test, isotope labeling (γ-33P-ATP): VEGFR2; type: biochemical; details: test compound at a concentration of 10 μM
Sequence (P35968 20-1356): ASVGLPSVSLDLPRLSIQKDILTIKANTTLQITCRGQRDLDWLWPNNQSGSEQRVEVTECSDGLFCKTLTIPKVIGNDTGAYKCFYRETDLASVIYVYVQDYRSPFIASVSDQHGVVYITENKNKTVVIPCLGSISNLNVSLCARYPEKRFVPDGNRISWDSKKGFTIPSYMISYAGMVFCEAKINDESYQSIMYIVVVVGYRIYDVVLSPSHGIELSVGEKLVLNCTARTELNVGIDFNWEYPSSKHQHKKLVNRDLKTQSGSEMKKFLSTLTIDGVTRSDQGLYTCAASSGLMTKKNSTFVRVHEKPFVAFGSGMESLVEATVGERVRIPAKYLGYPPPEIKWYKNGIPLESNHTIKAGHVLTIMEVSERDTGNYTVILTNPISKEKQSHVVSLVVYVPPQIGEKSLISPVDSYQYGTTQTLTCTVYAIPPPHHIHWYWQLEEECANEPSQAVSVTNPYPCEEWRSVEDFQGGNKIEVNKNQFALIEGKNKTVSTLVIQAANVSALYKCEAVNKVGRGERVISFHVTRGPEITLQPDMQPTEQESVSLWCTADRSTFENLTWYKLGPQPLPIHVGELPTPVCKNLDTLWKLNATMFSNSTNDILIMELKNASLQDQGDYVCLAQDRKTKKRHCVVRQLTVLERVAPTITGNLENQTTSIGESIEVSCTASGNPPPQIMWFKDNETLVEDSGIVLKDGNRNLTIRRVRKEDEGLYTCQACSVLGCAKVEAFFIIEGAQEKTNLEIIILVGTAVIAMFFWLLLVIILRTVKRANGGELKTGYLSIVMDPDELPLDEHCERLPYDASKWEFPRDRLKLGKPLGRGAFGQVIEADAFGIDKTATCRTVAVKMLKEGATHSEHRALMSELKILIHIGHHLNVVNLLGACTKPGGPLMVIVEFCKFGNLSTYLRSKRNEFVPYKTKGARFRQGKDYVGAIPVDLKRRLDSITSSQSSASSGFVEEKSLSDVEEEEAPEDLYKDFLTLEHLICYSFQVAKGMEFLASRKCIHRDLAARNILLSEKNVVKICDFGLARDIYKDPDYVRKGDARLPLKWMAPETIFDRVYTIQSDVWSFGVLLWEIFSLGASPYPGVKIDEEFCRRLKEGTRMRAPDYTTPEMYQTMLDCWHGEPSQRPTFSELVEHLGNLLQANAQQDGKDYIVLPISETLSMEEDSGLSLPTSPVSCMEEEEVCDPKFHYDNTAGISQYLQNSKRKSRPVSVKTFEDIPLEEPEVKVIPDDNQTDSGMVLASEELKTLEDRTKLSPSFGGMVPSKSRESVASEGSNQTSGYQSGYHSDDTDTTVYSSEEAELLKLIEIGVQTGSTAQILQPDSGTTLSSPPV
test readout: Activity inhibition rate VEGFR2 (h) (%)

• O=C(Nc1ccc(Sc2ncnc3[nH]ncc23)cc1)Nc1cccc(C(F)(F)F)c1 = 100
• C[C@H](NC(=O)Nc1ccc(Oc2ncnc3[nH]ncc23)cc1)c1ccccc1 = 95
• CC(C)(C)c1cc(NC(=O)Nc2ccc(Oc3ncnc4[nH]ncc34)cc2)on1 = 100
• O=C(Nc1ccc(C(F)(F)F)cc1)Nc1ccc(Oc2ncnc3[nH]ncc23)c(F)c1 = 100
• CC(C)(C)c1cc(NC(=O)Nc2ccc(Oc3ncnc4[nH]ncc34)c(F)c2)no1 = 100

* * *

pIC50: −log10 of the molar value.
// endpoint pIC50 / system UniProtKB P35968
test readout: pIC50

• O=C(Nc1ccc(Oc2ncnc3[nH]ncc23)cc1)Nc1ccc(C(F)(F)F)cc1 [4a-1] = 7.52
• O=C(Nc1ccc(Oc2ncnc3[nH]ncc23)cc1)Nc1cccc(C(F)(F)F)c1 [4a-6] = 7.96
• CC(C)(C)c1cc(NC(=O)Nc2ccc(Oc3ncnc4[nH]ncc34)cc2)no1 [4a-26] = 7.92
• O=C(Nc1ccc(Oc2ncnc3[nH]ncc23)cc1)Nc1ccc(C(F)(F)F)cc1Cl [4a-13] = 7.43
• O=C(Nc1ccc(Oc2ncnc3[nH]ncc23)c(F)c1)Nc1ccc(Cl)c(C(F)(F)F)c1 [4a-10] = 7.68
• O=C(Nc1ccc(Oc2ncnc3[nH]ncc23)cc1)Nc1ccc(Cl)c(C(F)(F)F)c1 [4a-2] = 7.92

* * *

target: c-KIT (Homo sapiens, UniProt P10721); assay: Kinase inhibition activity test, isotope labeling: c-KIT; type: biochemical; conditions: test compound at a concentration of 10 μM; read-out: Activity inhibition rate c-Kit (h)
Sequence (P10721 26-976): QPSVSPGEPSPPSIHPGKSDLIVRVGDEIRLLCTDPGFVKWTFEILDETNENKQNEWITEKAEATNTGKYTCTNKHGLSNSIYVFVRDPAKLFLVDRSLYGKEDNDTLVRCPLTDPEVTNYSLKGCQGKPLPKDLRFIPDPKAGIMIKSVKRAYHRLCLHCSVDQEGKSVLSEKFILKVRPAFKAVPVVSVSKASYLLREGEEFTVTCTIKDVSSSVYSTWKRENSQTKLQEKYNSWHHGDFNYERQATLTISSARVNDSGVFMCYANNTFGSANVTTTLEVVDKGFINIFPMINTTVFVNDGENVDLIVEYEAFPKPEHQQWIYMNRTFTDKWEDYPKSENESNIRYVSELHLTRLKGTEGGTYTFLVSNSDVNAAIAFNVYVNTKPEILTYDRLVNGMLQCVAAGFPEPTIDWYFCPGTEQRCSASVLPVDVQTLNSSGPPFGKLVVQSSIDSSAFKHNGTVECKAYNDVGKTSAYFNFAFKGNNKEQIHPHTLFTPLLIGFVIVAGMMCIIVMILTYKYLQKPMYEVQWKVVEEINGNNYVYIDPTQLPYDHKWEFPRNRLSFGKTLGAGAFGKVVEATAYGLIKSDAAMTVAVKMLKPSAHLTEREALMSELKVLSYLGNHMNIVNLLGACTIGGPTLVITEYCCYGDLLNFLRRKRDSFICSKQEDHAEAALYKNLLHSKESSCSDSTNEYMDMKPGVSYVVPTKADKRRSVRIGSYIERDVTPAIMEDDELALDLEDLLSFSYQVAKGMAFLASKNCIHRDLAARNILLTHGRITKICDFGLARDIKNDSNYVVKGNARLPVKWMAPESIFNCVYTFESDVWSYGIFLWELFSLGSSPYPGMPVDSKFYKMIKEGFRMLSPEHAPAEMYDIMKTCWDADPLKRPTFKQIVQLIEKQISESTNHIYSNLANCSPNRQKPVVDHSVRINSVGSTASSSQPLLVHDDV
# key: entry, value: inhibition at 10 µM
test readout: inhibition at 10 µM

* CC(C)(C)c1cc(NC(=O)Nc2ccc(Oc3ncnc4[nH]ncc34)cc2)no1 [4a-26] | > 90%
* O=C(Nc1ccc(Sc2ncnc3[nH]ncc23)cc1)Nc1ccc(C(F)(F)F)cc1 [4c-1] | > 90%
* O=C(Nc1ccc(Oc2ncnc3[nH]ncc23)cc1)Nc1ccc(N2CCOCC2)cc1 [4a-16] | 77%
* O=C(Nc1ccc(NC(=O)N2C=NC=C3NNC=C32)cc1)Nc1ccc(Cl)c(C(F)(F)F)c1 [4b-5] | > 30%
* Cc1cc(C)c(NC(=O)Nc2ccc(NC(=O)N3C=NC=C4NNC=C43)cc2)c(C)c1 [4b-7] | > 30%
* C[C@@H](NC(=O)Nc1ccc(Nc2ncnc3[nH]ncc23)cc1)c1ccccc1 [4b-2] | > 30%
* O=C(Nc1ccc(Oc2ncnc3[nH]ncc23)cc1)Nc1cccc(C(F)(F)F)c1 [4a-6] | 100%
* O=C(Nc1ccc(Oc2ncnc3[nH]ncc23)cc1)Nc1cc(C(F)(F)F)on1 [4a-28] | > 90%
* CC(C)n1ncc2c(Oc3ccc(NC(=O)Nc4cc(C(C)(C)C)on4)cc3)ncnc21 [5a-4] | > 30%
